Give measured IC50 for each item. Keep answers brief.
molecular target: mitochondrial Complex II (Bos taurus, UniProt P31039+P35720+Q3T189+Q95123); assay: Mito Check Complex Activity Assay Kit, complex II; details: mitochondrial electron transport chain
Sequence (P31039 44-665): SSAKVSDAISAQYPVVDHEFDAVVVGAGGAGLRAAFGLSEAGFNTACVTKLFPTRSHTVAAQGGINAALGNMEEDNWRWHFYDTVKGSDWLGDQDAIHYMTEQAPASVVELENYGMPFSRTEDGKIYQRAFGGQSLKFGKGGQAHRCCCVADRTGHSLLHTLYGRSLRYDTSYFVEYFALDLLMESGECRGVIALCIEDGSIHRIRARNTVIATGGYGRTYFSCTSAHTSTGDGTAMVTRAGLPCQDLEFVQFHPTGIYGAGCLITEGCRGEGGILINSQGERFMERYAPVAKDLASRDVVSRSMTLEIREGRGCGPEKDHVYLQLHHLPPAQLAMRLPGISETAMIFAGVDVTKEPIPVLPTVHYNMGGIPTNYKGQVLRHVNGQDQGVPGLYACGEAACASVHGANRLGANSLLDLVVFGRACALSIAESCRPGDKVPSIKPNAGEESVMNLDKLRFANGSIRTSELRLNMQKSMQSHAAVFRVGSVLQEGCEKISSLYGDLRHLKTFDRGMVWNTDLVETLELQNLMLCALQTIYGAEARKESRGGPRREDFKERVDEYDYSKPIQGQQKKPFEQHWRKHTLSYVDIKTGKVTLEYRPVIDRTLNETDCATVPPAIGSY
Sequence (Q3T189 29-280): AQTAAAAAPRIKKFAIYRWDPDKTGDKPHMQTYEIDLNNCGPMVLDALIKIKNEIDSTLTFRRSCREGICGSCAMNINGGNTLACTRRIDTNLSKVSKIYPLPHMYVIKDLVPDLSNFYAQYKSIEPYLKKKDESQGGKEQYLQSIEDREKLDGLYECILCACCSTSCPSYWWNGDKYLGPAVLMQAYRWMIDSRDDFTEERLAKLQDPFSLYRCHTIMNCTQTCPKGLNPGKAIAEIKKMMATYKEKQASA
Sequence (P35720 30-169): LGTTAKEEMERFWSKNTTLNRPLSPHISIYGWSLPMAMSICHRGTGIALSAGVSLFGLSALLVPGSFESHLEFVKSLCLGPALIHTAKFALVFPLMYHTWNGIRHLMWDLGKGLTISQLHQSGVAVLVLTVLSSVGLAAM
Sequence (Q95123 56-158): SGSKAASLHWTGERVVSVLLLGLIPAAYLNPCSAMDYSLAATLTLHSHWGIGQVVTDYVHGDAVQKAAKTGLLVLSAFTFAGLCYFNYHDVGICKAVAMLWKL
Note: unit µM is implicit; provide only the numeric part.

Dear colleague, I am looking for the recorded IC50 of the following molecule: COc1ccc(C2SSC34CC5(O)C(Cl)C=CC(O)C5ON3C(=O)C2NC4=O)c(O)c1OC (centres unmarked) [Compound 1, DC1149B]
19

Looking for the measured IC50 of O=C(CC(=O)C(F)(F)F)c1cccs1 [thenoyltrifluoroacetone, reference compound] , can you help?
65
